- test-protocol: Cytotoxicity against African green monkey Vero cells
- Assay type: toxicity, cell-based
- settings: African green monkey (Chlorocebus sabaeus)
pIC50: −log10 of the molar value.
Items are presented alongside their recorded pIC50.
parameter: pIC50

[
  {
    "compound-string": "C#CCOc1cc(O)c2c(=O)c(O[C@@H]3O[C@@H](C)[C@H](O)[C@@H](O)[C@H]3O)c(-c3ccc(OC)cc3)oc2c1CC=C(C)C",
    "value-prefix": "=",
    "measured-number": 5.19
  },
  {
    "compound-string": "C=CCOc1cc(O)c2c(=O)c(O[C@@H]3O[C@@H](C)[C@H](O)[C@@H](O)[C@H]3O)c(-c3ccc(OC)cc3)oc2c1CC=C(C)C",
    "value-prefix": "=",
    "measured-number": 5.23
  },
  {
    "compound-string": "CCN(CC)CCCOc1cc(O)c2c(=O)c(O[C@@H]3O[C@@H](C)[C@H](O)[C@@H](O)[C@H]3O)c(-c3ccc(OC)cc3)oc2c1CC=C(C)C",
    "value-prefix": "=",
    "measured-number": 5.21
  },
  {
    "compound-string": "C=C(C)COc1cc(O)c2c(=O)c(O[C@@H]3O[C@@H](C)[C@H](O)[C@@H](O)[C@H]3O)c(-c3ccc(OC)cc3)oc2c1CC=C(C)C",
    "value-prefix": "=",
    "measured-number": 5.09
  },
  {
    "compound-string": "COc1ccc(-c2oc3c(CC=C(C)C)c(OCCCN4CCNCC4)cc(O)c3c(=O)c2O[C@@H]2O[C@@H](C)[C@H](O)[C@@H](O)[C@H]2O)cc1",
    "value-prefix": "<",
    "measured-number": 4.70
  },
  {
    "compound-string": "COc1ccc(-c2oc3c(CC=C(C)C)c(O)cc(O)c3c(=O)c2O[C@@H]2O[C@@H](C)[C@H](O)[C@@H](O)[C@H]2O)cc1",
    "value-prefix": "=",
    "measured-number": 5.03
  }
]

---

Listed below: selectivity ratio values for each entry.
- test-protocol: Selectivity index, ratio of IC50 for cytotoxicity against African green monkey Vero cells to IC50 for antitumor activity against human MCF7 cells
- Assay type: toxicity, cell-based
- settings: Vero cells and MCF7 cells, read-out: Ratio IC50
parameter: selectivity ratio

[
  {
    "compound-string": "C#CCOc1cc(O)c2c(=O)c(O[C@@H]3O[C@@H](C)[C@H](O)[C@@H](O)[C@H]3O)c(-c3ccc(OC)cc3)oc2c1CC=C(C)C",
    "value-prefix": "=",
    "measured-number": 2.3
  },
  {
    "compound-string": "CCN(CC)CCCOc1cc(O)c2c(=O)c(O[C@@H]3O[C@@H](C)[C@H](O)[C@@H](O)[C@H]3O)c(-c3ccc(OC)cc3)oc2c1CC=C(C)C",
    "value-prefix": "=",
    "measured-number": 1.89
  },
  {
    "compound-string": "COc1ccc(-c2oc3c(CC=C(C)C)c(OCCCN4CCNCC4)cc(O)c3c(=O)c2O[C@@H]2O[C@@H](C)[C@H](O)[C@@H](O)[C@H]2O)cc1",
    "value-prefix": ">",
    "measured-number": 5
  }
]

---

Items are presented alongside their recorded selectivity ratio.
- test-protocol: Selectivity index, ratio of IC50 for cytotoxicity against African green monkey Vero cells to IC50 for antitumor activity against human MCF7 cells
- Type: toxicity, cell-based
- settings: Vero cells and MCF7 cells, read-out: Ratio IC50
parameter: selectivity ratio

[
  {
    "compound-string": "COc1ccc(-c2oc3c(CC=C(C)C)c(OC(C)=O)cc(OC(C)=O)c3c(=O)c2O[C@@H]2O[C@@H](C)[C@H](OC(C)=O)[C@@H](OC(C)=O)[C@H]2OC(C)=O)cc1",
    "measured-number": 4.47
  },
  {
    "compound-string": "COc1ccc(-c2oc3c(CC=C(C)C)c(O)cc(O)c3c(=O)c2O[C@@H]2O[C@@H](C)[C@H](O)[C@@H](O)[C@H]2O)cc1",
    "measured-number": 1.24
  },
  {
    "compound-string": "COc1ccc(-c2oc3c(CC=C(C)C)c(OCCCN4CCCCC4)cc(O)c3c(=O)c2O[C@@H]2O[C@@H](C)[C@H](O)[C@@H](O)[C@H]2O)cc1",
    "measured-number": 4.08
  }
]

---

- test-protocol: Cytotoxicity against African green monkey Vero cells
- Assay type: toxicity, cell-based
- settings: African green monkey (Chlorocebus sabaeus)
pIC50: −log10 of the molar value.
Reported pIC50 values for a set of compounds

[
  {
    "compound-string": "COc1ccc(-c2oc3c(CC=C(C)C)c(OC(C)=O)cc(OC(C)=O)c3c(=O)c2O[C@@H]2O[C@@H](C)[C@H](OC(C)=O)[C@@H](OC(C)=O)[C@H]2OC(C)=O)cc1",
    "pIC50": 5.50
  },
  {
    "compound-string": "COc1ccc(-c2oc3c(CC=C(C)C)c(OCCCN4CCCC4)cc(O)c3c(=O)c2O[C@@H]2O[C@@H](C)[C@H](O)[C@@H](O)[C@H]2O)cc1",
    "pIC50": 5.21
  },
  {
    "compound-string": "COc1ccc(-c2oc3c(CC=C(C)C)c(OCCCN4CCC(C)CC4)cc(O)c3c(=O)c2O[C@@H]2O[C@@H](C)[C@H](O)[C@@H](O)[C@H]2O)cc1",
    "pIC50": 4.99
  },
  {
    "compound-string": "COc1ccc(-c2oc3c(CC=C(C)C)c(OC(C)=O)cc(O)c3c(=O)c2O[C@@H]2O[C@@H](C)[C@H](OC(C)=O)[C@@H](OC(C)=O)[C@H]2OC(C)=O)cc1",
    "pIC50": 5.41
  },
  {
    "compound-string": "COc1ccc(-c2oc3c(CC=C(C)C)c(OCC=C(C)C)cc(O)c3c(=O)c2O[C@@H]2O[C@@H](C)[C@H](O)[C@@H](O)[C@H]2O)cc1",
    "pIC50": 5.17
  },
  {
    "compound-string": "COc1ccc(-c2oc3c(CC=C(C)C)c(OCCCN4CCCCC4)cc(O)c3c(=O)c2O[C@@H]2O[C@@H](C)[C@H](O)[C@@H](O)[C@H]2O)cc1",
    "pIC50": 4.81
  }
]

---

- test-protocol: Selectivity index, ratio of IC50 for cytotoxicity against African green monkey Vero cells to IC50 for antitumor activity against human MCF7 cells
- Assay type: toxicity, cell-based
- settings: Vero cells and MCF7 cells, read-out: Ratio IC50

[
  {
    "compound-string": "COc1ccc(-c2oc3c(CC=C(C)C)c(OCCCN4CCC(C)CC4)cc(O)c3c(=O)c2O[C@@H]2O[C@@H](C)[C@H](O)[C@@H](O)[C@H]2O)cc1",
    "selectivity ratio": 3.24
  },
  {
    "compound-string": "COc1ccc(-c2oc3c(CC=C(C)C)c(OC(C)=O)cc(O)c3c(=O)c2O[C@@H]2O[C@@H](C)[C@H](OC(C)=O)[C@@H](OC(C)=O)[C@H]2OC(C)=O)cc1",
    "selectivity ratio": 2.51
  },
  {
    "compound-string": "COc1ccc(-c2oc3c(CC=C(C)C)c(OCCCN4CCCC4)cc(O)c3c(=O)c2O[C@@H]2O[C@@H](C)[C@H](O)[C@@H](O)[C@H]2O)cc1",
    "selectivity ratio": 1.99
  }
]

---

- test-protocol: Selectivity index, ratio of IC50 for cytotoxicity against African green monkey Vero cells to IC50 for antitumor activity against human MCF7 cells
- Type: toxicity, cell-based
- settings: Vero cells and MCF7 cells, read-out: Ratio IC50
Attribute: selectivity ratio
parameter: selectivity ratio

[
  {
    "compound-string": "COc1ccc(-c2oc3c(CC=C(C)C)c(OCC=C(C)C)cc(O)c3c(=O)c2O[C@@H]2O[C@@H](C)[C@H](O)[C@@H](O)[C@H]2O)cc1",
    "parameter": "selectivity ratio",
    "measured-number": 2.85
  },
  {
    "compound-string": "C=CCOc1cc(O)c2c(=O)c(O[C@@H]3O[C@@H](C)[C@H](O)[C@@H](O)[C@H]3O)c(-c3ccc(OC)cc3)oc2c1CC=C(C)C",
    "parameter": "selectivity ratio",
    "measured-number": 2.03
  },
  {
    "compound-string": "C=C(C)COc1cc(O)c2c(=O)c(O[C@@H]3O[C@@H](C)[C@H](O)[C@@H](O)[C@H]3O)c(-c3ccc(OC)cc3)oc2c1CC=C(C)C",
    "parameter": "selectivity ratio",
    "measured-number": 2.06
  }
]
